Hi there, I'd appreciate the recorded apparent KD of MS2 coat protein for every entry that follows.
System: MS2 coat protein
Assay: apparent KD of MS2 coat protein; designed switch direction (-1 OFF switch, 1 ON switch): -1; higher = weaker reporter binding
Recorded Conditions: input ligand: FMN 200 uM
Respond numerically; units are nM and should not be typed.

Req: Item UAGUUCUGAGGAUAUUCUCCAAAGCACAUGAGGAUCACCCAUGUCCAGUUAUGGCUUUCUGAAGAAGGCAGUCUUA [Eternabot (L2) Solution 49] (Eterna round: R97, puzzle: Exclusion 5) : provide apparent KD of MS2 coat protein
Resp: 87.9

Req: Return reported apparent KD of MS2 coat protein. Input sequence: UGUUGUCGCGUAGGAUAUGGCCAACAGGCCCUAGGAUAUCGGAAACGAGAAGGAGCGCCAACAGGCGAGAAGGACGGGACAACU [pwkr exNG2 2xF7 2xFMN.20] (Eterna round: R96, puzzle: Exclusion NG 2)
Resp: 33

Req: Supply recorded apparent KD of MS2 coat protein for GGUUUGGGAGGAUAUGGUUUGAAUAACAUGAGGAUCACCCAUGUAAAUAGAUCUUCCGGGCCAGAAGGCUCGGGCC [-23.9, -21.52 kcal, A 26%] (Eterna round: R97, puzzle: Exclusion 5) here.
Resp: 29.5

Req: State, in one line, measured apparent KD of MS2 coat protein of GAUUACCUAACAAGUAAGCACAUGAGGAUCACCCAUGUGGAGGGUCAUGUCAUGCUCAAGAUGCUCGUCAUUUCUAG [Eternabot (L2) Solution 38] (Eterna round: R97, puzzle: Sensor, turn-off variant 1)
Resp: 180

Req: Hello, please tell me recorded apparent KD of MS2 coat protein for this one: GCCGGCUGAGGAUAUACAUGAGGAUCACCCAUGUGCUUCAGCCGGGAGACCGGCAUUGGUAGAAGGCAGCCGGC [Mod of lroppy 21 - Jieux - Exclusion 3] (Eterna round: R97, puzzle: Exclusion 3)
Resp: 14.5

Req: State, in one line, measured apparent KD of MS2 coat protein of GAUCAACAUGAGGAUCACCCAUGUGAGGAUAUUGACUUGCUCACUUUCCCAUCAGAGUCGAGAAGGCGCAUCUG [1986#21] (Eterna round: R97, puzzle: Exclusion 1)
Resp: 28.1

Req: Kindly indicate its recorded apparent KD of MS2 coat protein. Item: AAAACAAAGCUAGGAUAUUGUCCGAUGUAGCGAUAAGAAGGAGCAGAGUACGUCUGGUCCACAUGAGGAUCACCCAUGUACAAA [Inmaon] (Eterna round: R96, puzzle: Exclusion NG 1)
Resp: 183
